Biological target: dopamine carrier (Homo sapiens, UniProt Q01959)
Construct: This assay was carried out in purified synaptosomes of human caudate; from tissue; host or cells: post-mortem human caudate, purified synaptosomes
Sequence (Q01959 whole entry): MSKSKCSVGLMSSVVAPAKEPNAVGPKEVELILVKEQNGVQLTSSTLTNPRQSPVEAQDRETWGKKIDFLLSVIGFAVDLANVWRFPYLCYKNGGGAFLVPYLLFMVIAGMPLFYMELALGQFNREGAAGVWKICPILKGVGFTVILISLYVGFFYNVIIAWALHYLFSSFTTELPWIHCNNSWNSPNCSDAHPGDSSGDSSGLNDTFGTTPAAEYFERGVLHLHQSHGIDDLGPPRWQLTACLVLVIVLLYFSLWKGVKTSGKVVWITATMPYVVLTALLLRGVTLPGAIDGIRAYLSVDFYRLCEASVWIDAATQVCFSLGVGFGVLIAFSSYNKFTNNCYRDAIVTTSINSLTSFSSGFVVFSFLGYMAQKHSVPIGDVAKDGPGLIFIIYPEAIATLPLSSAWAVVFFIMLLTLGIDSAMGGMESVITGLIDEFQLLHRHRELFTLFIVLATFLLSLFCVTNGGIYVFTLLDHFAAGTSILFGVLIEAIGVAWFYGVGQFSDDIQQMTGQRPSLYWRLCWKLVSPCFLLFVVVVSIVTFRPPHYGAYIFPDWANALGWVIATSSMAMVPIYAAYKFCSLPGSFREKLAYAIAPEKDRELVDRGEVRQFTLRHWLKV
Assay: Dopamine carrier inhibition in purified synaptosomes of human caudate
Format: biochemical
Details: human caudate synaptosomes, dopamine (DA) 0.1 µM; read-out: IC50(max)
REPORTED ENDPOINT: pIC50
Entry type: numeric. Quantity: pIC50, the -log10 of concentration in molar units.

May I ask what pIC50 has been recorded for C#CCNCc1cc2cc(OCc3ccccc3)ccc2[nH]1 ?
6.44

###

Molecular target: MAO-A (Rattus norvegicus)
Construct: human and rat tissue to obtain the isolated forms of monoamine oxidase A and B; from tissue
Sequence (P21396 whole entry): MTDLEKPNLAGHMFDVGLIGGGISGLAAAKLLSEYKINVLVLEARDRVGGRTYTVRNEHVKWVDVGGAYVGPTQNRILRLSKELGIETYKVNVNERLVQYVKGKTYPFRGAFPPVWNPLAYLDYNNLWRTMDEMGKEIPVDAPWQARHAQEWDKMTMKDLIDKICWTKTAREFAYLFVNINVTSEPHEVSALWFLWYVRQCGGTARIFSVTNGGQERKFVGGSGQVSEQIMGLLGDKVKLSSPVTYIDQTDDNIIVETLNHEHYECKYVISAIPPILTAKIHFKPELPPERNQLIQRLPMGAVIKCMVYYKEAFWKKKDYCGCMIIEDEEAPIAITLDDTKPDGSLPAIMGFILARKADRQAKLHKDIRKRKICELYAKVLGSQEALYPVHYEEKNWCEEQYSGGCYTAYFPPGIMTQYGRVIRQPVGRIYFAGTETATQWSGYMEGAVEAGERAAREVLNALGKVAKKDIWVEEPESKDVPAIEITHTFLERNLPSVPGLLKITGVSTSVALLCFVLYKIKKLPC
Assay: biochemical
Type: biochemical, Sprague-Dawley rat
Conditions: MAO-A (lines A..), substrate 5-HT, 0 min incubation, rat mitochondria; read-out: IC50 0 min
Each entry below lists one item and its recorded IC50 value.
Record the value in µM, omitting the unit from your answer.

May I ask what IC50 has been recorded for CC#CCNCc1cc2cc(OCc3ccccc3)ccc2[nH]1 ?
63

May I ask what IC50 has been recorded for CC#CCN(CC#CC)Cc1cc2cc(OCc3ccccc3)ccc2[nH]1 ?
39

May I ask what IC50 has been recorded for C=C=CCNCc1cc2cc(OCc3ccccc3)ccc2[nH]1 ?
3.98

Others:
May I ask what IC50 has been recorded for C=C=CCN(CC=C=C)Cc1cc2cc(OCc3ccccc3)ccc2[nH]1 ?
120

May I ask what IC50 has been recorded for C=C=CCNCc1cc2cc(OCc3ccccc3)ccc2n1C ?
0.199
